# Test system: Phytophthora infestans
# RUN_DESCRIPTION: whole plant or invertebrate
# Type: in vivo
# CONDITION_INFO: Phytophthora infestans, in Solanum lycopersicum, read-out: TLB control value (C.V.)
READOUT_NAME: pest or weed control at 50 ppm (%)
Value expressed in %; do not type the unit.

## Input Determine its reported pest or weed control at 50 ppm: CNC(=O)/C(=N/OC)c1ccccc1COc1ccc(C=C(Cl)Cl)cc1Br
## Output 100

## Input Determine its reported pest or weed control at 50 ppm: CNC(=O)/C(=N/OC)c1ccccc1COc1ccc(C=C(Br)Br)cc1
## Output 100

## Input Determine its reported pest or weed control at 50 ppm: CO/N=C(/C(=O)OC)c1ccccc1COc1ccc(F)cc1C=C(Cl)Cl
## Output 100

## Input Determine its reported pest or weed control at 50 ppm: CO/N=C(/C(=O)OC)c1ccccc1COc1ccc(C)cc1C=C(Cl)Cl
## Output 100

## Input Determine its reported pest or weed control at 50 ppm: CO/N=C(/C(=O)OC)c1ccccc1COc1c(OC)ccc(C=C(Cl)Cl)c1Br
## Output 100

## Input Determine its reported pest or weed control at 50 ppm: CNC(=O)/C(=N/OC)c1ccccc1COc1cccc(C=C(Br)Br)c1Cl
## Output 100

## Input Determine its reported pest or weed control at 50 ppm: CNC(=O)/C(=N/OC)c1ccccc1COc1ccc(C=C(Cl)Cl)cc1C
## Output 70

## Input Determine its reported pest or weed control at 50 ppm: CO/N=C(/C(=O)OC)c1ccccc1COc1cccc(C=C(Br)Br)c1
## Output 55

## Input Determine its reported pest or weed control at 50 ppm: CO/N=C(/C(=O)OC)c1ccccc1COc1c(C)cccc1C=C(Cl)Cl
## Output 100
